Field: %Inh. Provide a value for each of the compounds that follow.
Tested on: WNK4
stated_conditions: concentration: 1 μM, replicates: in singlicate; n = 1;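 further: KINOMEscan kinase panel screen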
One number for each entry, in %.

Sample records with %Inh:
compound="COC(=O)c1cccc(NC(=O)NC2CCN(c3ccnc(Nc4ccc(OC)cc4)n3)C2)c1 (centres unmarked) [GSK1379746]" u=% measured_result=46
compound="O=c1cc(N2CCOCC2)nc2n(Cc3cccc(Cl)c3Cl)c3ccccc3n12 [GSK2299009]" u=% measured_result=0
compound="Nc1ncnc2occ(-c3ccc4c(c3)CCN4C(=O)Cc3cc(F)ccc3F)c12 [GSK2645446]" u=% measured_result=60
compound="Cc1ccc(NC(=O)c2ccc(Cl)cc2)cc1-c1ccc(C(=O)Nc2ccncc2)cc1 [GSK1398467]" u=% measured_result=22
compound=COc1ccc(CSc2nnc(-c3ccc4nccn4c3)o2)cc1C(F)(F)F u=% measured_result=2

State the recorded %Inh for every item in the following list.
1. Cc1ccc(NC(=O)Nc2ccc(Cl)c(C(F)(F)F)c2)cc1-c1ccc(C(=O)Nc2ccncc2)cc1 [GSK1398470]
2. Cc1ccccc1-c1cc(-c2c[nH]nc2-c2ccccn2)ccn1 [GW680061]
3. COc1cccc(C2=C(Nc3cc(Cl)c(O)c(Cl)c3)C(=O)NC2=O)c1 [SB-390767]

0
31
17

---

Field: %Inh. Provide a value for each of the compounds that follow.
Tested on: MYLK4
stated_conditions: concentration: 1 μM, replicates: in singlicate; n = 1
One number for each entry, in %.

Sample records with %Inh:
compound="Cl.Cl.Cl.N#Cc1ccc(CCNc2nccc(-c3cccc(CN4CCNCC4)c3)n2)cc1 [GSK2137462]" u=% measured_result=38
compound="Nc1cccc(-c2ccc3c(N)n[nH]c3c2)n1 [GSK2192730]" u=% measured_result=72
compound="CNc1nc(-c2ccc3c(N)n[nH]c3c2)cc(N2C[C@@H](C(=O)NC3CCCCC3)OC[C@H]2C)n1 [GSK2375584]" u=% measured_result=0
compound="CC(C)c1ccc(O)cc1Nc1ccnc2ccc(C(F)(F)F)cc12 [GW482059]" u=% measured_result=0
compound="COc1cc2ncnc(Nc3cccc(Br)c3)c2cc1OC.Cl [GI230329]" u=% measured_result=5
compound="Cc1nccc(-c2c(-c3ccc(F)cc3)ncn2CCCN2CCOCC2)n1.Cl [SB-282975]" u=% measured_result=0
compound="O=c1cc(N2CCOCC2)nc2n(Cc3ccccc3F)ccn12 [GSK2297428]" u=% measured_result=0
compound="COC(=O)c1cccc(NC(=O)NC2CCN(c3ccnc(Nc4ccc(F)cc4)n3)C2)c1 (stereo not shown) [GSK1379725]" u=% measured_result=0

State the recorded %Inh for every item in the following list.
1. O=C1NC(=O)C(c2ccc(Cl)cc2)=C1Nc1ccc(O)cc1 [SB-340867]
2. CC(=O)c1c(C)c2cnc(Nc3ccc(N4CCNCC4)cn3)nc2n(C2CCCC2)c1=O
3. CCn1c(-c2ccccc2)nc2cnccc21 [SB-733416]
4. Nc1ncnc2occ(-c3ccc4c(c3)CCN4C(=O)Cc3cc(F)ccc3F)c12 [GSK2645446]
5. CNCc1ccc2nc(NC(=O)c3ccc(C(C)(C)C)cc3)cn2c1
6. CC[C@@H]1CO[C@H](C(=O)Nc2ccccc2)CN1c1cc(-c2ccc3c(N)n[nH]c3c2)nc(NC)n1 [GSK2376236]
7. O=C(Nc1n[nH]c2nc(-c3cccs3)c(Br)cc12)C1CCCC1 [SB-743341]
8. Cc1cnc(N)c(/C=C/c2cncc(C(=O)NCCc3ccc(Cl)cc3Cl)c2)c1.Cl [GSK190937]

3
0
2
7
1
10
17
62

State the recorded %Inh for every item in the following list.
1. CCCCc1nn2ncccc2c1-c1ccnc(NC2CC2)n1 [GW684374]
2. O=C(Nc1n[nH]c2nc(-c3cccs3)c(Br)cc12)C1CC1 [SB-735297]
3. CC(C)c1cc(-c2ccc3c(N)n[nH]c3c2)nc(N)n1 [GSK2250882]

1: 52; 2: 29; 3: 39

State the recorded %Inh for every item in the following list.
1. CS(=O)(=O)Cc1ccc(Nc2nccc(-c3c(-c4cccc(NC(=O)C5CCCCC5)c4)nn4ncccc34)n2)cc1 [GSK350559]
2. CCc1ccc(-c2ccc3c(c2)-c2n[nH]cc2S(=O)(=O)N3C)cc1
3. CNC(=O)c1ccc(C)c(-n2c(C)cc(OCc3ccc(F)cc3F)c(Br)c2=O)c1
4. COc1ccc(Nc2nccc(N3CCC(NC(=O)C(C)c4ccc(Cl)cc4)CC3)n2)cc1 (stereo not shown) [GSK1379812]
5. COc1ccc(CSc2nnc(-c3ccc4c(c3)CCO4)o2)cc1
6. CS(=O)(=O)CCNCc1nc(-c2ccc3ncnc(Nc4ccc(OCc5ccccc5)c(Cl)c4)c3c2)cs1.Cl [GW582764]

1. 0
2. 0
3. 3
4. 6
5. 3
6. 0

---

System: MLK3
stated_conditions: concentration: 1 μM, replicates: in singlicate; n = 1
Field: %Inh. Provide a value for each of the molecules that follow.
Answers are plain numbers, in %.

molecule=Cc1ccc(-c2nc(Nc3ccncc3)c3ccccc3n2)s1 assayed_system=MLK3 measured_result=5
molecule=CCc1ccc(-c2ccc3c(c2)-c2n[nH]cc2S(=O)(=O)N3C)cc1 assayed_system=MLK3 measured_result=0
molecule=CS(=O)(=O)CCNCc1nc(-c2ccc3ncnc(Nc4ccc(OCc5ccccc5)c(Cl)c4)c3c2)cs1.Cl assayed_system=MLK3 measured_result=0

// lookup %Inh for COc1cccc(CNC(=O)NC2CCN(c3ccnc(Nc4ccc(F)cc4)n3)C2)c1 (stereo not shown)
0

---

Tested on: CLK1
stated_conditions: concentration: 1 μM, replicates: in singlicate; n = 1
observed_property: %Inh (%)
Give bare numbers, in %.

Sample records with %Inh:
compound="COC(=O)c1cccc(NC(=O)NC2CCN(c3ccnc(Nc4ccc(F)cc4)n3)C2)c1 (stereo not shown)" observed_property=%Inh measured_result=10
compound=O=C1NC(=O)C(c2ccc(Cl)cc2)=C1Nc1cccc(Cl)c1 observed_property=%Inh measured_result=91.6

State the recorded %Inh for every item in the following list.
1. COc1ccc(Nc2nccc(NCCNC(=O)Nc3cc(C)ccc3C)n2)cc1
2. Fc1ccc(-c2nc[nH]c2-c2ccncc2)cc1
3. COc1ccc(Nc2nccc(N3CCC(NC(=O)C(C)c4ccc(Cl)cc4)C3)n2)cc1 (stereo not shown)
4. COc1cccc(CNC(=O)NC2CCN(c3ccnc(Nc4ccc(F)cc4)n3)C2)c1 (stereo not shown)
5. Cc1ccc(NC(=O)Nc2ccccc2)cc1-c1ccc(C(=O)Nc2ccncc2)cc1
6. CC(=O)c1cccc(NC(=O)NC2CCN(c3ccnc(Nc4ccc(F)cc4)n3)C2)c1 (stereo not shown)
7. Cc1ccc(NC(=O)Nc2ccccc2F)cc1-c1ccc(C(=O)Nc2ccncc2)cc1
8. CS(=O)(=O)Cc1ccc(Nc2nccc(-c3c(-c4cccc(NC(=O)C5CCCCC5)c4)nn4ncccc34)n2)cc1

[23, 5, 16, 19, 20, 24, 16, 10]

State the recorded %Inh for every item in the following list.
1. CCCCc1nn2ncccc2c1-c1ccnc(NC2CC2)n1
2. CN1c2ccc(-c3ccc(C(N)=O)cc3)cc2-c2[nH]ncc2S1(=O)=O
3. Nc1ncnc2occ(-c3ccc4c(c3)CCN4C(=O)Cc3cc(F)ccc3F)c12
4. Cc1cccc2c(-c3ccncn3)c(-c3ccc(F)cc3)nn12

[40, 25, 27, 99.9]

State the recorded %Inh for every item in the following list.
1. Cc1ccc(-c2nc(Nc3ccncc3)c3ccccc3n2)s1
2. Cc1c(Cn2c(C)c(C)n3c(=O)cc(N4CCOCC4)nc23)cccc1C(F)(F)F

35
22

---

Field: %Inh. Provide a value for each of the compounds that follow.
System: TRKC
Construct: gene NTRK3
stated_conditions: concentration: 1 μM, replicates: in singlicate; n = 1
Enter the number, and then the unit.

Sample records with %Inh:
chem_smiles=CC[C@@H]1CO[C@H](C(=O)Nc2ccccc2)CN1c1cc(-c2ccc3c(N)n[nH]c3c2)nc(NC)n1 observed_property=%Inh measured_result=0%
chem_smiles=Cc1ccc(NC(=O)Nc2ccccc2)cc1-c1ccc(C(=O)Nc2ccncc2)cc1 observed_property=%Inh measured_result=0%
chem_smiles=O=C(Nc1n[nH]c2nc(-c3cccs3)c(Br)cc12)C1CC1 observed_property=%Inh measured_result=17%

State the recorded %Inh for every item in the following list.
1. Cc1cccc2c(-c3ccncn3)c(-c3ccc(F)cc3)nn12
2. Cc1ccccc1Cn1ccn2c(=O)cc(N3CCOCC3)nc12

7%
0%

---

System: EPHA7
stated_conditions: concentration: 1 μM, replicates: in singlicate; n = 1
observed_property: %Inh (%)
Numbers only, in %.

Sample records with %Inh:
compound="O=C(Nc1n[nH]c2nc(-c3ccco3)c(Br)cc12)C1CCN(Cc2ccccc2)C1.O=C(O)[C@H](O)[C@@H](O)C(=O)O (stereo not drawn) [SB-742034]" measured_result=7
compound="CC[C@@H]1CO[C@H](C(=O)Nc2ccccc2)CN1c1cc(-c2ccc3c(N)n[nH]c3c2)nc(NC)n1 [GSK2376236]" measured_result=2
compound="Cn1cncc1C(=O)NC1CCN(c2ccnc(Nc3ccc(F)cc3)n2)C1 (stereo not drawn) [GSK1379717]" measured_result=3
compound="CS(=O)(=O)CCNCc1nc(-c2ccc3ncnc(Nc4ccc5c(cnn5Cc5ccccc5)c4)c3c2)cs1.Cl.Cl [GW569716]" measured_result=4
compound=CCc1ccc(-c2ccc3c(c2)-c2n[nH]cc2S(=O)(=O)N3C)cc1 measured_result=0

State the recorded %Inh for every item in the following list.
1. COc1ccc2cc(-c3nc(-c4ccccc4C(C)C)[nH]c3-c3ccncc3)ccc2c1 [SB-660566]
2. CC(=O)c1c(C)c2cnc(Nc3ccn(C)n3)nc2n(C2CCCC2)c1=O
3. O=C(Nc1n[nH]c2nc(-c3cccs3)c(Br)cc12)C1CC1 [SB-735297]
4. Cc1c(Cn2c(C)c(C)n3c(=O)cc(N4CCOCC4)nc23)cccc1C(F)(F)F [GSK2328680]

1: 15; 2: 0; 3: 0; 4: 4

These data points were gathered from paper PMC5540273.
